- Tested on: Mouse liver microsome
- Experiment notes: Liver microsomal stability assay, mouse
- Assay type: in vitro ADME
- Parameters: key: A: the percentage of a compound remains is greater than that of its deuterium non-enriched counterpart; B: a result otherwise
- Test context: 40 μM, 37° C., 30 min, 1 mg/ml microsome proteins; class relative to deuterium non-enriched counterpart
- Protocol: A standard liver microsomal stability assay can be used to test or screen the compounds of this invention and to identify compounds with enhanced metabolic stability due to the enrichment of deuterium in the compounds. […] The percentage of compounds that remained in the assay reactions after a thirty-minute incubation at 37° C. is calculated as the ratio between the amount of compound remained after a thirty-minute and that after a zero-minute incubation.
Where a name gives a salt, the structure may show the parent alone.
Value type: % of compound remained at the 30th minutes, Mouse liver microsome

Illustrative cases are given below, each with its answer.
| Compound | Obs value |
| --- | --- |
| [2H]C([2H])(c1ccnc2[nH]ccc12)n1ccc2c(NC(=O)Nc3cc(Cl)ccc3F)cccc21 [Example 12, hydrochloride] | B |
| [2H]C(c1c[nH]c2ncccc12)n1ccc2c(NC(=O)Nc3cccc(C)c3)cccc21 (centres unmarked) | A |
| [2H]C(c1c[nH]c2ncccc12)n1ccc2c(NC(=O)Nc3cc(Cl)ccc3F)cccc21 (centres unmarked) | B |
| [2H]C([2H])(c1ccnc2[nH]ccc12)n1ccc2c(NC(=O)Nc3cccc(C)c3)cccc21 [Example 14, hydrochloride] | A |
| [2H]C(c1c[nH]c2ncccc12)N1CCc2c(NC(=O)Nc3cccc(C)c3)cccc21 (centres unmarked) | A |

Query string: Item under review: `[2H]C([2H])([2H])Oc1ccc(Cl)cc1NC(=O)Nc1cccc2c1CCN2C([2H])([2H])c1ccnc(N)c1` . Reported % of compound remained at the 30th minutes, Mouse liver microsome?
Result string: B

---

- System: Rat liver microsome
- Experiment notes: Liver microsomal stability assay, rat
- Assay type: in vitro ADME
- Design: key: A: the percentage of a compound remains is greater than that of its deuterium non-enriched counterpart; B: a result otherwise
- Test context: 40 μM, 37° C., 30 min, 1 mg/ml microsome proteins; class relative to deuterium non-enriched counterpart
Counter-ions that a name gives are not always drawn.
Value type: % of compound remained at the 30th minutes, Rat liver microsome

Illustrative cases are given below, each with its answer.
| Compound | Obs value |
| --- | --- |
| [2H]C(c1c[nH]c2ncccc12)n1ccc2c(NC(=O)Nc3cccc(C)c3)cccc21 (stereo not shown) | B |
| [2H]C([2H])([2H])Oc1ccc(Cl)cc1NC(=O)Nc1cccc2c1CCN2Cc1ccnc(N)c1 | A |
| [2H]C(c1c[nH]c2ncccc12)N1CCc2c(NC(=O)Nc3cc(Cl)ccc3OC)cccc21 (stereo not shown) | A |
| [2H]C([2H])(c1ccnc2[nH]ccc12)n1ccc2c(NC(=O)Nc3cc(Cl)ccc3F)cccc21 [Example 12, hydrochloride] | A |
| Cl.[2H]C([2H])([2H])Oc1ccc(Cl)cc1NC(=O)Nc1cccc2c1ccn2C([2H])([2H])c1ccnc2[nH]ccc12 | A |

Query string: Enter reported % of compound remained at the 30th minutes, Rat liver microsome observed with Rat liver microsome for [2H]C([2H])(c1ccnc2[nH]ccc12)n1ccc2c(NC(=O)Nc3cc(Cl)ccc3OC)cccc21 [Example 10, hydrochloride]
Result string: B

Query string: Enter reported % of compound remained at the 30th minutes, Rat liver microsome observed with Rat liver microsome for [2H]C(c1c[nH]c2ncccc12)N1CCc2c(NC(=O)Nc3cc(Cl)ccc3F)cccc21 (stereo not shown)
Result string: B
